Please go through the items and note down their Picoequivalents of amine/10e6 cells.
- Tested on: L1210
- assayProcedure: Intracellular levels in L1210 cells following 500 uM exposure.
- Format: functional, Mus musculus
Please reply with the number alone, leaving off any unit.

## Input I'm curious: which Picoequivalents of amine/10e6 cells was measured for CCNCCCCCNCCCCCNCC tested on L1210?
## Output 9010

## Input I'm curious: which Picoequivalents of amine/10e6 cells was measured for CCNCCCCNCCCN tested on L1210?
## Output 17990

## Input I'm curious: which Picoequivalents of amine/10e6 cells was measured for CNCCCCCNCCCCNC tested on L1210?
## Output 20810
